- EXPERIMENTAL DETAILS: chemical genetic growth profiling, strain panel (AID 1159580);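 also: tested at 20 µM; growth read once vehicle control cultures reached saturation at 30 °C; lower values mean less growth of the strain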
- CONDITIONS USED: S. cerevisiae deletion strains, growth OD, locus YGL078C, strain dbp3
The campaign covered roughly 5,500 compounds. About 2,000 (36%) were called active. Not shown: some 18% with an inconclusive outcome. Rule as the data show it: active = normalized growth mostly below about 0.91 (no sharp cut-off); inconclusive = no clear call, values can overlap the other calls; inactive = mostly above about 0.92. The list shows a part of the results.
Classes used: YES for active, NO for inactive

COMPOUND	ASSIGNED CATEGORY
CC(=O)Oc1c(Cl)c(C)c2c(c1Cl)OC(=O)c1c(C)c(Cl)c(OC(C)=O)c(Cl)c1O2	YES
NCC(N)C(=O)c1ccccc1 (stereo unspecified)	NO
CNCCCC12CCC(c3ccccc31)c1ccccc12	NO
CC12CCC3C(CC3(C)C)C(C)(CCC1=O)O2 (stereo unspecified)	NO
COC(=O)c1c(OC)cc2c(c1C)Oc1c(Cl)c(OC(C)=O)c(Cl)c(C)c1C(=O)O2	NO
COC(=O)c1c(OC)cc2c(c1C)Oc1c(Cl)c(O)c(Cl)c(C)c1C(=O)O2	NO
CC(=O)O[C@H]1CC[C@@]2(C)C(C[C@@H](OC(C)=O)[C@@]3(C)C4=CC(=O)O[C@@H](c5ccoc5)[C@]4(C)CCC23)C1(C)C (stereo partly specified)	NO
CN(C)[C@@H]1C(=O)C(C(N)=O)=C(O)[C@@]2(O)C(=O)C3=C(O)c4c(O)ccc(Cl)c4[C@@H](O)[C@H]3C[C@@H]12	NO
CC(=O)c1cc(CC=C(C)C)c(O)c(CC=C(C)C)c1	NO
NCC(=O)c1ccccc1	NO
CC(=O)c1ccc(O)c(CC=C(C)C)c1	NO

----------
- EXPERIMENTAL DETAILS: chemical genetic growth profiling, strain panel (AID 1159580);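 also: tested at 20 µM; growth read once vehicle control cultures reached saturation at 30 °C; lower values mean less growth of the strain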
- CONDITIONS USED: S. cerevisiae deletion strains, growth OD, locus YGL240W, strain doc1, active compounds read low
Hit rate of the full screen: of about 5,500 compounds, about 2,000 (36%) were called active. Another 18% or so got no clear call; they are omitted. Some of the results follow.
Mark each entry condition met if its normalized growth sits below 1, and condition not met for all others.

COMPOUND	ASSIGNED CATEGORY
Cc1cn[nH]c1	condition not met
NC(=O)c1cccnc1	condition met
CC(=O)Oc1ccc(/C=C/c2cc(OC(C)=O)cc(OC(C)=O)c2)cc1	condition met
OC[C@H]1O[C@@H](O[C@@H]2[C@@H](CO)O[C@](O)(CO)[C@H]2O)[C@H](O)[C@@H](O)[C@H]1O	condition not met
CN(C)[C@@H]1C(=O)C(C(N)=O)=C(O)[C@@]2(O)C(=O)C3=C(O)c4c(O)ccc(Cl)c4[C@@H](O)[C@H]3C[C@@H]12	condition met
O=C(O)c1ccccc1	condition met
C=C1c2cccc(O)c2C(O)=C2C(=O)[C@]3(O)C(O)=C(C(N)=O)C(=O)[C@@H](N(C)C)[C@@H]3[C@@H](O)[C@H]12	condition not met
CC(Cc1cccc(C(F)(F)F)c1)NCCOC(=O)c1ccccc1 (configuration not stated)	condition met
OC[C@H]1O[C@@H](O[C@H]2[C@H](O)[C@@H](O)[C@@H](O)O[C@@H]2CO)[C@H](O)[C@@H](O)[C@@H]1O	condition not met
C[C@H]1c2cccc(O)c2C(O)=C2C(=O)[C@]3(O)C(O)=C(C(N)=O)C(=O)[C@@H](N(C)C)[C@@H]3[C@@H](O)[C@@H]21	condition met
CC(=O)Oc1ccc(O)cc1	condition met

Attribution: PubChem BioAssay AID1159580
